molecular target: PTPN3, P26045; test: holdup assay; set-up: key: below the threshold = too weak to quantify, mostly under pKd 3.1 to 4; conditions: plain residues with an end cap or a label only (N-terminal biotin on a linker: ado-ado)
Sequence (P26045 505-587): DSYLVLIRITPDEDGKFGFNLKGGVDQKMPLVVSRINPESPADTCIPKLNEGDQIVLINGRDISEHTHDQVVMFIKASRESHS
observationType: pKd
A bare number is all that is needed in reply.

Task: Entry HLRARKSEWV [GJD4, Q96KN9] needs its pKd filled in; supply it.
Result: 3.99

Task: Entry KSGKQTMLVV [TRIM29, Q14134] needs its pKd filled in; supply it.
Result: 3.71

Task: Entry DDENIRTSDV [PLEKHA2, Q9HB19] needs its pKd filled in; supply it.
Result: 4.6

Task: Entry GNSVLKSTQF [SLC22A12, Q96S37] needs its pKd filled in; supply it.
Result: 4.59

Task: Entry SARSRLSSNL [HCN2, Q9UL51] needs its pKd filled in; supply it.
Result: 4.16

Task: Entry QGPVETESVV [SLC45A4, Q5BKX6] needs its pKd filled in; supply it.
Result: 4.66
